Just for reference, PubChem BioAssay (NCI) is where these values come from.

System: HT29 colon
METHOD: NCI tumour cell line growth inhibition, 48 h
MEASURED METRIC: GI50

COMPOUND: C(=N\Nc1ncc(-c2cc3cc4c(cc3o2)OCO4)s1)/c1ccco1
TARGET SYSTEM: HT29 colon
OBSERVED MEASUREMENT: 2990 nM

COMPOUND: Fc1cccc(COc2ccc(Nc3ncnc4onc(-c5ccccc5)c34)cc2)c1
TARGET SYSTEM: HT29 colon
OBSERVED MEASUREMENT: 49.5 nM

COMPOUND: CCOC(=O)C(=Cc1ccc(C#N)cc1)C(=O)OCC
TARGET SYSTEM: HT29 colon
OBSERVED MEASUREMENT: 1930 nM

COMPOUND: CN1C(=O)CCC(N2C(=O)c3cccc(NCCOCCOCCNC(=O)c4cc5c(o4)C(=O)c4ccccc4C5=O)c3C2=O)C1=O (centres undefined)
TARGET SYSTEM: HT29 colon
OBSERVED MEASUREMENT: 2660 nM

COMPOUND: CCCc1nn(C)c2c(=O)[nH]c(-c3cc(S(=O)(=O)N4CCN(C)CC4)ccc3OCC)nc12
TARGET SYSTEM: HT29 colon
OBSERVED MEASUREMENT: > 100000 nM

COMPOUND: CC1=C([Te]c2ccccc2)C(=O)c2ccccc2C1=O
TARGET SYSTEM: HT29 colon
OBSERVED MEASUREMENT: 344 nM

COMPOUND: COc1cc(-c2nn(-c3cccc(NC(=O)Nc4ccc(Cl)c(C(F)(F)F)c4)c3)cc2-c2ccncc2)ccc1Cl
TARGET SYSTEM: HT29 colon
OBSERVED MEASUREMENT: 1190 nM

COMPOUND: COc1ccccc1C#Cc1ccccc1C#Cc1ccc(OCCCCCCOc2ccccc2C#Cc2ccccc2C#Cc2ccccc2OC)cc1
TARGET SYSTEM: HT29 colon
OBSERVED MEASUREMENT: > 100000 nM

COMPOUND: COc1cc2nc(Nc3cccc(Cl)c3)nc(N)c2cc1OC
TARGET SYSTEM: HT29 colon
OBSERVED MEASUREMENT: 3230 nM

====

Test system: A549 NSCLC
METHOD: NCI tumour cell line growth inhibition, 48 h

COMPOUND: Cc1cc(N(CCC#N)CCC#N)ccc1/C(N=Nc1ccc([N+](=O)[O-])cc1)=N\NC(=O)c1cc(Cl)ccc1O
TGI: > 100 µM
--
COMPOUND: O=C(c1c(F)c(F)c(F)c(F)c1F)c1c(F)c(F)c(F)c(F)c1F
TGI: 15.4 µM
--
COMPOUND: Cc1ccc(OP(=O)(Oc2ccc(C)cc2)N2C=Cc3ccccc3C2C#N)cc1 (stereo unspecified)
TGI: > 100 µM
--
COMPOUND: COc1ccc(NC(=O)Oc2ccc3c(C)cc(=O)oc3c2)c(OC)c1 (tested in a mixture with another compound)
TGI: > 100 µM
--
COMPOUND: CCOC(=O)c1ccc(-n2cnc(-c3ccc([N+](=O)[O-])cc3)c2)cc1
TGI: > 100 µM
--
COMPOUND: Cc1nc(OCc2ccccc2)c2ncn(CCO)c2n1
TGI: > 100 µM
--
COMPOUND: O=C1Nc2c(Cl)cc(Cl)cc2/C1=N/N=C/c1ccco1
TGI: > 100 µM
--
COMPOUND: COC(=O)CCc1ccc(CCC(=O)OC)cc1
TGI: > 100 µM
--
COMPOUND: Cc1ccc(CNc2ccc3nc(CCC4CCCCC4)[nH]c3c2)cc1
TGI: 17.6 µM
--
COMPOUND: Nc1ncc(-c2ccc3ncnc(Nc4cccc(Cl)c4)c3c2)cn1
TGI: > 100 µM
--
COMPOUND: Cc1c(Cn2c(C)nc3c(C(=O)O)cc(N4CCOCC4)cc32)cccc1C(F)(F)F
TGI: > 100 µM
--
COMPOUND: O=C1C(Cl)=C(Cl)C(=O)C(CCNc2nccs2)=C1Cl
TGI: > 100 µM
--
COMPOUND: C=C(C)[C@@H]1CC[C@]2(CO)CC[C@]3(C)[C@H](CC[C@@H]4[C@@]5(C)CCCNC(C)(C)[C@@H]5CC[C@]43C)[C@@H]12
TGI: 3.24 µM
--
COMPOUND: O=c1cc(-c2ccc(F)cc2)[nH]c2ncccc12
TGI: > 100 µM
--
COMPOUND: CN(C)CCNc1ccc2ncn3c4ccc(O)cc4c(=O)c1c23
TGI: 4.26 µM
--
COMPOUND: CCCCCCN(CCCCCC)CCC(=O)c1ccc2cc(Br)c3ccccc3c2c1
TGI: > 100 µM
--
COMPOUND: COc1cc(C2C=C(c3ccccc3)Oc3cc4c(cc32)OCO4)cc(OC)c1OC (stereo unspecified)
TGI: > 100 µM
--
COMPOUND: Cc1ncn(-c2ccccc2O)c1C
TGI: > 100 µM
--
COMPOUND: Nc1nc(Cl)cc(NCC2(CCO)CCC2)n1
TGI: > 100 µM
--
COMPOUND: COc1ccc(C2SCC(=O)N2c2ccc(-n3c(-c4ccccc4)nc4ccccc4c3=O)cc2)cc1 (stereo unspecified)
TGI: > 100 µM
--
COMPOUND: COc1cc2nc(Nc3cccc(Cl)c3)nc(N)c2cc1OC
TGI: 27.3 µM
